# METHOD_DESCRIPTION: Half life in human liver microsomes
# Format: ADME, Microsome
OBSERVABLE: half-life (min)

Example results:
Tell me the measured half-life of `OCCN1CCC(c2[nH]nc(-c3ccc(Cl)cc3)c2-c2ccncc2)CC1` , please.
30.5

# input compound: `OCCN1CCC(c2[nH]nc(-c3ccc(Cl)cc3)c2-c2ccncn2)CC1` ; wanted: its half-life
47.6

If you can, please state the reported half-life value of `O=C(CO)N1CCC(c2[nH]nc(-c3ccc(Cl)cc3)c2-c2ccncc2)CC1` .
62

Which half-life value is on record for `CS(=O)(=O)N1CCC(c2[nH]nc(-c3ccc(Cl)cc3)c2-c2ccncn2)CC1` ?
53.9

I have this compound here, `CC(=O)N1CCC(c2[nH]nc(-c3ccc(Cl)cc3)c2-c2ccncc2)CC1` , and I need its recorded half-life.
43.3

1. Clc1ccc(-c2n[nH]c(C3CCN(C4CCOC4)CC3)c2-c2ccncn2)cc1 (stereo not given)
2. CN1CCC(c2[nH]nc(-c3ccc(Cl)cc3)c2-c2ccncn2)CC1
3. CC(=O)N1CCC(c2[nH]nc(-c3ccc(Cl)cc3)c2-c2ccncn2)CC1
4. COCCN1CCC(c2[nH]nc(-c3ccc(Cl)cc3)c2-c2ccncc2)CC1
Please give the order of these compounds when sorted by half-life, largest value leading. Write the labels out in the order the request specifies.
3, 1, 2, 4
(3: 102 min, 1: 61.3 min, 2: 31.2 min, 4: 21.5 min)

The measurements presented in this section are drawn from ChEMBL document CHEMBL1156967.
